Provenance of the data: PubChem BioAssay (NCI)

Assay: NCI Yeast Anticancer Drug Screen. Data for the rad50 strain (AID 155);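 note: 0% = growth of vehicle-only cultures of the same strain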
Conditions: S. cerevisiae rad50 strain growth inhibition; at 50.0 µM; stronger effect = higher value
Procedure: Growth inhibition of yeast strains with defined genetic alterations is measured as a screen for potential anti-cancer activity. Selected strains with alterations in DNA damage repair or cell cycle control were exposed to compounds and growth inhibition was measured relative to vehicle treated controls. The strain used in this assay is rad50
About 79,000 compounds went through this panel and 15% of them were active in at least one assay; those are over-represented in the sample as a whole.
Quick list: growth inhibition per entry.
Report only the number, with the unit % understood.

Please review the following examples before continuing.
COMPOUND: CN(C)c1ccc(C(=O)C2CCCCC2)cc1
MEASUREMENT: 29.1
//
COMPOUND: Cc1cccc(NC(=O)OCCOC(=O)Nc2cccc(C)n2)n1
MEASUREMENT: -15.1
//
COMPOUND: CC(C)(C)N1COCC(COc2ccc(Cl)cc2)OC1 (stereo unspecified)
MEASUREMENT: -13.3
//
COMPOUND: CC(NC(=O)C(N)CC(=O)O)C(=O)OC12CC3CC(CC(C3)C1)C2 (stereo unspecified)
MEASUREMENT: -55.5
//
COMPOUND: CCCCCCCC(=O)NN(Cn1c(=S)sc2ccccc21)Cn1c(=S)sc2ccccc21
MEASUREMENT: 32

Asked: Supply growth inhibition value. Item: COc1cc(Cn2c(=S)ss/c2=N\C(=S)N(C)C)cc(OC)c1OC
Given back: 1.7

Asked: Answer with the recorded growth inhibition for the compound listed here: Cc1ccc(-c2cc(-c3ccccc3)c(C#N)c(=O)[nH]2)cc1
Given back: 16.1

Asked: Fill in reported growth inhibition for this entry: CC(C)C(NC(=O)C1CCCN1)P(=O)(O)O (stereo unspecified)
Given back: 10.1

Asked: Item CN(c1ccc(Br)cc1)c1nc(N)nc(N)c1N=O : provide growth inhibition
Given back: 16.4

Asked: Dear colleague, please send me the reported growth inhibition for CCc1cccc(C)c1N1C(=O)C(=O)C(c2nc3ccccc3o2)C(=O)C1=O when you can.
Given back: 33.8

Asked: Hello, please tell me recorded growth inhibition for this one: COc1cc(C2c3cc4c(c(OC(=O)c5ccccn5)c3CC3COC(=O)C32)OCO4)cc(OC)c1OC (stereo unspecified)
Given back: 8.1

---

Experiment: NCI Yeast Anticancer Drug Screen. Data for the rad50 strain (AID 155);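 note: 0% = growth of vehicle-only cultures of the same strain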
Conditions: S. cerevisiae rad50 strain growth inhibition; at 50.0 µM; stronger effect = higher value
About 79,000 compounds went through this panel and 15% of them were active in at least one assay; those are over-represented in the sample as a whole.
Listed compounds paired with reported growth inhibition
Dear colleague, please return just the value in %, with no unit written.

Sample answers from the record:
COMPOUND: CCS(=O)(=O)Nc1ccc(NS(=O)(=O)CC)cc1
READOUT_NAME: growth inhibition
MEASUREMENT: 39.7
//
COMPOUND: Cc1cc([N+](=O)[O-])ccc1NC(=O)OC(C)C
READOUT_NAME: growth inhibition
MEASUREMENT: -12.6
//
COMPOUND: O=C(OC(=O)c1cccnc1)c1cccnc1
READOUT_NAME: growth inhibition
MEASUREMENT: -30.2

Asked: Name the recorded growth inhibition of the item O=C(CCCl)Nc1cccc(CCC(=O)c2ccccc2NC(=O)CCCl)c1 in your answer.
Given back: -8.1

Asked: Supply recorded growth inhibition for NC(CCC(=O)NC(CSSCCCCS(=O)O)C(=O)NCC(=O)O)C(=O)O (stereo unspecified) here.
Given back: -1.65

Asked: Give a short answer stating reported growth inhibition for Cc1cc2c(cc1C)OC(=O)CC2 .
Given back: 14.3

---

Entries and their growth inhibition values follow.
Assay: NCI Yeast Anticancer Drug Screen. Data for the rad50 strain (AID 155);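 note: 0% = growth of vehicle-only cultures of the same strain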
Details: S. cerevisiae rad50 strain growth inhibition; at 50.0 µM; stronger effect = higher value
Compounds without any hit were thinned out: in the full panel of roughly 79,000, 15% have a hit.
Reply with just the number (in %).

Some solved entries appear below for comparison.
MOLECULE: COc1ccccc1/C=C/C(=O)N1CCC2(CC1)C(=O)N(C)CN2c1ccccc1
growth inhibition, %: -16

MOLECULE: COc1c(OC)c(C2(O)C(=O)N(C)c3ccccc32)c2c(c1C1(O)C(=O)N(C)c3ccccc31)OCO2 (configuration not stated)
growth inhibition, %: 4.25

Asked: Determine from records and report growth inhibition for CC(=O)Nc1cc(C)ccn1
Given back: 1.2

Asked: Please list growth inhibition recorded for the molecule O=[N+]([O-])c1ccccc1N/N=C/c1ccccc1
Given back: -10.2

Asked: Please indicate growth inhibition recorded for CCC1=Nc2ccccc2C(c2ccccc2)NC1=O (configuration not stated)
Given back: -2

---

Assay: NCI Yeast Anticancer Drug Screen. Data for the mec2-1 strain (AID 157)
Conditions: S. cerevisiae mec2-1 strain, at 50.0 µM, stronger effect = higher value
Compounds without any hit were thinned out: in the full panel of roughly 79,000, 15% have a hit. Active and inactive are the calls of the source. No stated cut-off is given here; in the data, active means growth inhibition above about 70%; inactive means the rest.
READOUT_NAME: growth inhibition

Asked: # return recorded growth inhibition for entry COc1ccc2c(c1OC)C(O)N1CCc3cc4c(cc3C1=C2C(=O)c1ccccc1)OCO4 (stereo not drawn)
Given back: 14.2% (inactive)

Asked: State its growth inhibition for this compound: CCCCn1c(CCC)nc([N+](=O)[O-])c1Sc1ncn[nH]1
Given back: 6.15% (inactive)

Asked: Input NNC(=S)N/N=C(\CCCC(=O)NCCc1ccccc1)CC(=O)c1ccccc1 , output reported growth inhibition.
Given back: 12.8% (inactive)

Asked: Let me know recorded growth inhibition for CCN1C(=O)CC(SCCSC2CC(=O)N(CC)C2=O)C1=O (stereo not drawn) , thanks.
Given back: -7.7% (inactive)

---

Assay: NCI Yeast Anticancer Drug Screen. Data for the cln2 rad14 strain (AID 165);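 note: 0% = growth equal to vehicle treated cultures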
Settings: S. cerevisiae cln2 rad14 strain, at 50.0 µM, stronger effect = higher value
Method: Growth inhibition of yeast strains with defined genetic alterations is measured as a screen for potential anti-cancer activity. Selected strains with alterations in DNA damage repair or cell cycle control were exposed to compounds and growth inhibition was measured relative to vehicle treated controls. The strain used in this assay is cln2 rad14
Compounds without any hit were thinned out: in the full panel of roughly 79,000, 15% have a hit.
READOUT_NAME: growth inhibition (%)
Please respond with the number in % and leave the unit unwritten.

Asked: Dear colleague, please send me the reported growth inhibition for OC(CNc1ncccn1)(Cc1ccccc1)Cc1ccccc1 when you can.
Given back: 19.1

Asked: Identify growth inhibition associated with the molecule Cc1ccc(-c2nc3ccccc3c(=O)n2/N=C/c2ccc(Cl)cc2Cl)cc1
Given back: 11.1

Asked: Report growth inhibition, nothing else, for this molecule: NC(=O)SCCC(N)C(=O)O (stereo not drawn)
Given back: 12.7

Asked: Return the recorded growth inhibition value; entry: O=C1C(Cl)C(c2ccc(O)cc2)N1n1cnc2ccccc2c1=O (stereo not drawn)
Given back: 31.9

Asked: Supply recorded growth inhibition for CC(C)(CO)NO here.
Given back: -0.4

Asked: Report measured growth inhibition; entry is O=S(=O)(O)C(O)C(F)(F)C(F)(F)C(F)(F)F (stereo not drawn)
Given back: -37.8

Asked: Tell me growth inhibition reported for CCC1=C(C)/C(=C/c2[nH]c(C)cc2C)N=C1C
Given back: -54.6

Asked: Look up and state reported growth inhibition for O=C1C2C3CCC(C3)C2N1Cc1ccccc1 (stereo not drawn)
Given back: -27.2

---

Test: NCI Yeast Anticancer Drug Screen. Data for the cln2 rad14 strain (AID 165);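 note: 0% = growth equal to vehicle treated cultures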
Details: S. cerevisiae cln2 rad14 strain, at 50.0 µM, stronger effect = higher value
This is part of a sample that, as a whole, favours compounds with a hit. Of some 79,000 tested, about 15% had one in any assay.
Everything with growth inhibition lower than -20% is criterion not met; everything else, including exactly -20%, is criterion met.

COMPOUND: CC1=NN(c2ccc(S(=O)(=O)O)cc2)C(=O)C1N=Nc1ccc(C)c(S(=O)(=O)Nc2ccccc2)c1 (stereo not given)
DISCRETE_LABEL: criterion met
--
COMPOUND: O=C1C2C3CC(C4C5C=CC(C5)C34)C2C2C3CC(C12)C1C2C=CC(C2)C31 (stereo not given)
DISCRETE_LABEL: criterion met
--
COMPOUND: CCC(=O)C1(N2CCOCC2)CCN(CCCC(=O)c2ccc(F)cc2)CC1
DISCRETE_LABEL: criterion met
--
COMPOUND: Cc1cccc(NC(=O)/C=C/C(=O)O)c1
DISCRETE_LABEL: criterion not met
--
COMPOUND: COC(=O)C1=C(O)c2cc(-c3ccccc3)c(-c3ccccc3)c(C#N)c2NC(=O)C1
DISCRETE_LABEL: criterion met

Asked: Entry Cn1c(=O)c2[nH]c(NCc3ccccc3)nc2n(C)c1=O : is its growth inhibition no less than -20%?
Given back: criterion not met

Asked: In plain terms: is recorded growth inhibition at least -20% for O=C(CCN(CCC(=O)c1ccccc1)CCC(=O)c1ccccc1)c1ccccc1 ?
Given back: criterion not met

Asked: Form field: growth inhibition at least -20%? Entry: CC(=O)NCC1(c2ccccc2)CCN(Cc2ccccc2)CC1
Given back: criterion met

Asked: I'd appreciate it if you could say whether CC1=NN(c2nc(N)nc(CSc3cc(Cl)c(C)cc3S(N)(=O)=O)n2)C(C)(C)C1 has growth inhibition at least equal to -20%.
Given back: criterion met
